Assay: Fraction unbound in Wistar Han rat plasma at 2 uM incubated for 6 hrs by equilibrium dialysis method
Cut-off 0.01 on fraction unbound at 6 h, 2 µM, inclusive. At or above means Condition met; below means Condition not met.

## Input In plain terms: is recorded fraction unbound at 6 h, 2 µM at least 0.01 for "COCCCN1C[C@H](C)N(C(=O)N2Cc3c(NC(=O)c4ccccn4)n[nH]c3C2(C)C)C[C@H]1C" ?
## Output Condition met

## Input In plain terms: is recorded fraction unbound at 6 h, 2 µM at least 0.01 for "C[C@H]1c2cccc(CCC(C)(C)O)c2C[C@H](CO)N1C(=O)Cc1c(Cl)cccc1Cl" ?
## Output Condition met

## Input In plain terms: is recorded fraction unbound at 6 h, 2 µM at least 0.01 for "O=C(NC1CCCC1)C1CCN(c2nc3cc(Cl)ccc3o2)CC1" ?
## Output Condition not met

## Input In plain terms: is recorded fraction unbound at 6 h, 2 µM at least 0.01 for "Cc1ccc(NC(=O)c2cc(Oc3ccc(S(C)(=O)=O)cc3)c3c(c2)OC(C)(C)C3)nc1" ?
## Output Condition met

## Input In plain terms: is recorded fraction unbound at 6 h, 2 µM at least 0.01 for "CCC[C@H](Oc1cc(C)c(-n2cc(C(F)(F)F)cn2)c(C)c1)c1ccc(C(=O)NCCC(=O)O)cc1" ?
## Output Condition not met

## Input In plain terms: is recorded fraction unbound at 6 h, 2 µM at least 0.01 for "O=C(O)[C@@H]1CCN(C(=O)n2cnc(-c3ccc(-c4cnc(N5CCOCC5)nc4)cc3)n2)[C@@H](c2ccccc2)C1" ?
## Output Condition not met

## Input In plain terms: is recorded fraction unbound at 6 h, 2 µM at least 0.01 for "CC1(OC(=O)N2CCC(n3ncc(COc4ccc(C(N)=O)cc4F)c3C#N)CC2)CC1" ?
## Output Condition met

## Input In plain terms: is recorded fraction unbound at 6 h, 2 µM at least 0.01 for "CN1CC[C@H](c2c(O)cc(O)c3c(=O)cc(-c4ccccc4Cl)oc23)[C@H](O)C1" ?
## Output Condition met
